Target: purified human activated protein C (Homo sapiens, UniProt P04070)
Sequence (P04070 212-461 limits assumed): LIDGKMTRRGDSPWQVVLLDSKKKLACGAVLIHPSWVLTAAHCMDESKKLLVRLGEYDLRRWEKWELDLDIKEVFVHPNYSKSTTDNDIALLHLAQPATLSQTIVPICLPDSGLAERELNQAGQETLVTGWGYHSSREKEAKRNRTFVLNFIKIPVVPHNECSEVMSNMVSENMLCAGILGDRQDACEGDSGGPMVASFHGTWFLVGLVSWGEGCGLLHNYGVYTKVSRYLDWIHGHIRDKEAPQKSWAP
Sequence (P04070 43-197 limits assumed): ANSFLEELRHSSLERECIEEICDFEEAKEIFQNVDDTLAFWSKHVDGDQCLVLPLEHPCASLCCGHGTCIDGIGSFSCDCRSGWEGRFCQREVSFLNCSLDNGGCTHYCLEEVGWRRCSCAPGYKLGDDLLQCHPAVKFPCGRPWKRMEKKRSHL
Assay: Inhibition of activated protein C
Conditions: substrate S 2366
The compounds listed here are annotated with their pIC50.
Scale: negative log10 of molar concentration, which is what pIC50 denotes.

Observe how each entry below is paired with its result.
- compound: "CC(=O)NC(Cc1ccccc1)C(=O)N(CC(=O)N[C@@H](CCCNC(=N)N)B(O)O)C1CCCC1.CC(=O)O (mixture of isomers)"
  reading: 6.83
- compound: "CC(=O)N[C@H](Cc1ccccc1)C(=O)N(CC(=O)N[C@@H](CCCN=C(N)N)B(O)O)C1CCCC1.CC(=O)O"
  reading: 7.09
- compound: "CC(=O)N[C@H](Cc1ccccc1)C(=O)N(CC(=O)N[C@@H](CCCNC(=N)N)B(O)O)C1CCC1.CC(=O)O"
  reading: 6.68

// next item, pIC50 requested
Would you mind telling me what pIC50 value was observed for CC(=O)N[C@H](Cc1ccccc1)C(=O)N1CCC[C@H]1C(=O)N[C@@H](CCCN=C(N)N)B(O)O [DUP 714, Ac-(D)Phe-Pro-Arg-boronic acid, reference compound] ?
7.77

* * *

Biological target: tissue plasminogen activator (Homo sapiens, UniProt P00750)
Sequence (P00750 36-562): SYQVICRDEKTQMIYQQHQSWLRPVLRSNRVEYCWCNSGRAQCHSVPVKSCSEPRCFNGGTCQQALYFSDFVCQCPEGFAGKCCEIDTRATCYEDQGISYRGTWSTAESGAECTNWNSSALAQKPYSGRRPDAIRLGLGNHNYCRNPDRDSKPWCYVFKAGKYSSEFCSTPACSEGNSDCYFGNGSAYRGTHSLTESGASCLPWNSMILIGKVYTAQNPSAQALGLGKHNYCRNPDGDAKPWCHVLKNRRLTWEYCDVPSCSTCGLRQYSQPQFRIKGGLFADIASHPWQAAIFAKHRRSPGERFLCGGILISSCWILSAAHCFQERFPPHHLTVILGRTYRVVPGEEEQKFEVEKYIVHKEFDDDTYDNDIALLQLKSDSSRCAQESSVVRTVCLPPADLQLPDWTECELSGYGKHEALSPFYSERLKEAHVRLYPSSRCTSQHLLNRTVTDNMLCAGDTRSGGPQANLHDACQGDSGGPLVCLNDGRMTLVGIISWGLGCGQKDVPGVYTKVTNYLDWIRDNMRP
test.readout: IC50

- compound: "CC(=O)N[C@H](Cc1ccccc1)C(=O)N1CCC[C@H]1C(=O)N[C@@H](CCCN=C(N)N)B(O)O [DUP 714, Ac-(D)Phe-Pro-Arg-boronic acid, reference compound]"
  tgt: "tissue plasminogen activator (Homo sapiens, UniProt P00750)"
  IC50: "8 nM"

// next item, IC50 requested
Would you mind telling me what IC50 value was observed for CC(=O)NC(Cc1ccccc1)C(=O)N(CC(=O)N[C@@H](CCCNC(=N)N)B(O)O)C1CCCC1.CC(=O)O (mixture of isomers) ?
38 nM

* * *

Below are IC50 values measured for purified human urokinase (Homo sapiens).
# value in nM; strip the unit string

Observe how each entry below is paired with its result.
- molecule: "CC(=O)N[C@H](Cc1ccccc1)C(=O)N(CC(=O)N[C@@H](CCCNC(=N)N)B(O)O)C1CCC1.CC(=O)O [Ex. 25]"
  reading: 1640
- molecule: "CC(=O)N[C@H](Cc1ccccc1)C(=O)N(CC(=O)N[C@@H](CCCN=C(N)N)B(O)O)C1CCCC1.CC(=O)O [Ex. 28]"
  reading: 1820
- molecule: "CC(=O)NC(Cc1ccccc1)C(=O)N(CC(=O)N[C@@H](CCCNC(=N)N)B(O)O)C1CCCC1.CC(=O)O (mixture of isomers) [Ex. 27]"
  reading: 3180

// next item, IC50 requested
Would you mind telling me what IC50 value was observed for CC(=O)N[C@H](Cc1ccccc1)C(=O)N1CCC[C@H]1C(=O)N[C@@H](CCCN=C(N)N)B(O)O [DUP 714, Ac-(D)Phe-Pro-Arg-boronic acid, reference compound] ?
24

* * *

The molecules listed here are annotated with their IC50.
Molecular target: purified human activated factor X (Homo sapiens, UniProt P00742)
Sequence (P00742 235-488 limits assumed): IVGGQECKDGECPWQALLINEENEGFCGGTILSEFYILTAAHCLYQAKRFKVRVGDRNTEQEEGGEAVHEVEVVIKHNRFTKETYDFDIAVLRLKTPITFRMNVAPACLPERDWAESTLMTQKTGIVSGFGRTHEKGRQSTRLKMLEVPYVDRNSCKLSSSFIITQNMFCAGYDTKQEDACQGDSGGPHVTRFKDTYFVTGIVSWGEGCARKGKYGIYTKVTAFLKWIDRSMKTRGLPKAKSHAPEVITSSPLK
Sequence (P00742 41-179 limits assumed): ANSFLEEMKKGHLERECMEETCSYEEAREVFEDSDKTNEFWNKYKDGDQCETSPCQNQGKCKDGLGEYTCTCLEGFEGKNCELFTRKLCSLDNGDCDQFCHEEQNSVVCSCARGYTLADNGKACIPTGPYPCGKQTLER
Assay: Inhibition of activated factor X
Conditions: substrate S 2765
# value in nM; strip the unit string

Would you mind telling me what IC50 value was observed for `CC(=O)N[C@H](Cc1ccccc1)C(=O)N(CC(=O)N[C@@H](CCCNC(=N)N)B(O)O)C1CCC1.CC(=O)O` ?
356

// same read-out, input: `CC(=O)N[C@H](Cc1ccccc1)C(=O)N(CC(=O)N[C@@H](CCCN=C(N)N)B(O)O)C1CCCC1.CC(=O)O`
225

// same read-out, input: CC(=O)N[C@H](Cc1ccccc1)C(=O)N1CCC[C@H]1C(=O)N[C@@H](CCCN=C(N)N)B(O)O [DUP 714, Ac-(D)Phe-Pro-Arg-boronic acid, reference compound]
41

// same read-out, input: CC(=O)NC(Cc1ccccc1)C(=O)N(CC(=O)N[C@@H](CCCNC(=N)N)B(O)O)C1CCCC1.CC(=O)O (mixture of isomers)
1760

* * *

Biological target: human thrombin (Homo sapiens)
Construct: human thrombin (Sigma, specific activity 3230 NIHU/mg); purchased Sigma
Experiment: Inhibition of human thrombin (fibrinogen or S2238 substrate)
Format: biochemical
Conditions: chromogenic substrate S2238; 20° C.; read-out: IC50 Thrombin S2238
Method: To evaluate in vitro the inhibitory activity of the boro-arginine products with respect to human thrombin (Sigma, specific activity 3230 NIHU/mg), purified human fibrinogen ([…], Stago) (Fg) or the chromogenic substrate H-D-Phe-Pip-Arg-pNa ([…], S2238, Kabi) was added to a given quantity of thrombin (0.7 or 2 nM) incubated beforehand with or without the inhibitor under test (20° C., 10 minutes). […]
test.readout: pIC50
Scale: negative log10 of molar concentration, which is what pIC50 denotes.

Observe how each entry below is paired with its result.
- compound: "CC(=O)NC(Cc1ccccc1)C(=O)N(CC(=O)N[C@@H](CCCNC(=N)N)B(O)O)C1CCCC1.CC(=O)O (mixture of isomers)"
  pIC50: 8.60
- compound: "CC(=O)N[C@H](Cc1ccccc1)C(=O)N(CC(=O)N[C@@H](CCCN=C(N)N)B(O)O)C1CCCC1.CC(=O)O"
  pIC50: 8.70

// next item, pIC50 requested
Would you mind telling me what pIC50 value was observed for `CC(=O)N[C@H](Cc1ccccc1)C(=O)N(CC(=O)N[C@@H](CCCNC(=N)N)B(O)O)C1CCC1.CC(=O)O` ?
8.70

* * *

Target: purified human plasma kallikrein (Homo sapiens)
Construct: to purified human plasma kallikrein (2 nM, Calbiochem); purchased Calbiochem
Sequence (P03952 391-638 limits assumed): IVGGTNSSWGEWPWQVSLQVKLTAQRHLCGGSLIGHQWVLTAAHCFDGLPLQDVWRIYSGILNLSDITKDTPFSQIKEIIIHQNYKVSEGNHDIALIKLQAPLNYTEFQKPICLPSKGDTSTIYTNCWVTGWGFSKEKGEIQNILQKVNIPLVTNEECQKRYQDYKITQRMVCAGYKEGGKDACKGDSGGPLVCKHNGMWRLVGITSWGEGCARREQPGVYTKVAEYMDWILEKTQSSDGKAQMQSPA
Sequence (P03952 20-390 limits assumed): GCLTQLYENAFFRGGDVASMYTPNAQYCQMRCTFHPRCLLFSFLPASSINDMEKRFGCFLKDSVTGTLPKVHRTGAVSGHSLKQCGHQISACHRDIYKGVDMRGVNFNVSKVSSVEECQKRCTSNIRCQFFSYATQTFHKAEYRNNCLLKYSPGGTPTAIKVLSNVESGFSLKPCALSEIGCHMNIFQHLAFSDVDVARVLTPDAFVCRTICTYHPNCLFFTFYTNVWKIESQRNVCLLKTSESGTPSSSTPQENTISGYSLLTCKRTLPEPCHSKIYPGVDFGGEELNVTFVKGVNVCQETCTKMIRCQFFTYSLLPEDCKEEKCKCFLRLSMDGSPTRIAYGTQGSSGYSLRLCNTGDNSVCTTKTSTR
Assay: Inhibition of plasma kallikrein
Type: biochemical
Conditions: substrate S 2302; read-out: IC50 Kalli
test.readout: IC50 (nM)
# value in nM; strip the unit string

Observe how each entry below is paired with its result.
- compound: "CC(=O)N[C@H](Cc1ccccc1)C(=O)N1CCC[C@H]1C(=O)N[C@@H](CCCN=C(N)N)B(O)O [DUP 714, Ac-(D)Phe-Pro-Arg-boronic acid, reference compound]"
  IC50 / nM: 8
- compound: "CC(=O)N[C@H](Cc1ccccc1)C(=O)N(CC(=O)N[C@@H](CCCN=C(N)N)B(O)O)C1CCCC1.CC(=O)O [Ex. 28]"
  IC50 / nM: 91
- compound: "CC(=O)N[C@H](Cc1ccccc1)C(=O)N(CC(=O)N[C@@H](CCCNC(=N)N)B(O)O)C1CCC1.CC(=O)O [Ex. 25]"
  IC50 / nM: 75

Form entry - test system: purified human plasma kallikrein (Homo sapiens); read-out: IC50; compound: CC(=O)NC(Cc1ccccc1)C(=O)N(CC(=O)N[C@@H](CCCNC(=N)N)B(O)O)C1CCCC1.CC(=O)O (mixture of isomers) [Ex. 27]
104

* * *

Below are pIC50 values measured for purified human plasmin (Homo sapiens).
Scale: negative log10 of molar concentration, which is what pIC50 denotes.

Observe how each entry below is paired with its result.
- compound: "CC(=O)N[C@H](Cc1ccccc1)C(=O)N(CC(=O)N[C@@H](CCCN=C(N)N)B(O)O)C1CCCC1.CC(=O)O [Ex. 28]"
  tgt: "purified human plasmin (Homo sapiens)"
  reading: 6.35
- compound: "CC(=O)N[C@H](Cc1ccccc1)C(=O)N1CCC[C@H]1C(=O)N[C@@H](CCCN=C(N)N)B(O)O [DUP 714, Ac-(D)Phe-Pro-Arg-boronic acid, reference compound]"
  tgt: "purified human plasmin (Homo sapiens)"
  reading: 7.55

// next item, pIC50 requested
Form entry - test system: purified human plasmin (Homo sapiens); read-out: pIC50; compound: CC(=O)N[C@H](Cc1ccccc1)C(=O)N(CC(=O)N[C@@H](CCCNC(=N)N)B(O)O)C1CCC1.CC(=O)O [Ex. 25]
Sequence (P00747 581-810 limits assumed): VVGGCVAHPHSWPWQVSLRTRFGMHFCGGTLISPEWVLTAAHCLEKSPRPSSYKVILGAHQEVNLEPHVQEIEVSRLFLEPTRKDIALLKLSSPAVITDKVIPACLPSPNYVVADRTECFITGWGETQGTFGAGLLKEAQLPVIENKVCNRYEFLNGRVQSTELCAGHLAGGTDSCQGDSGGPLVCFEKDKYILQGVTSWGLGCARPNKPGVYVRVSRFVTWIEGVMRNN
Sequence (P00747 97-580 limits assumed): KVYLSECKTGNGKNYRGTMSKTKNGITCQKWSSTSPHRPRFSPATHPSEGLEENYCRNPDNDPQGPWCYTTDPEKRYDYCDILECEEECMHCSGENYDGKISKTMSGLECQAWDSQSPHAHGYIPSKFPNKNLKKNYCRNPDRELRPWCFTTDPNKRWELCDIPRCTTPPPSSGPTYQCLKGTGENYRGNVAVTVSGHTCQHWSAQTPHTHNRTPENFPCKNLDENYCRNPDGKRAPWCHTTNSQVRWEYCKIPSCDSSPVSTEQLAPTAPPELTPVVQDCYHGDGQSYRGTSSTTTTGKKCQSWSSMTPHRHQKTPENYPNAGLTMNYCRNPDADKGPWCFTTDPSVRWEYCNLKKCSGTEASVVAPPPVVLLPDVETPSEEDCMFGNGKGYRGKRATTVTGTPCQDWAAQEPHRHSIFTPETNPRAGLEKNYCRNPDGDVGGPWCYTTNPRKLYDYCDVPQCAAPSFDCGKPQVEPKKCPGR
6.09
